In this section we review reported EC50 values for a set of substances.
- Tested on: human peripheral blood mononuclear cells (PBMCs)
- assay.protocol: IFN-α secretion by human PBMC (ELISA)
- Assay type: cell-based
- measurement.parameters: human PBMCs from healthy donors, 24 hours incubation, IFN-α in supernatant by ELISA
Quote the value and follow it with the unit of measurement.

Under human peripheral blood mononuclear cells (PBMCs): EC50 value of C69-11: 5′-TTTTCG AACGTTCGAACGTTCGAAATT-3′ (SEQ ID NO: 24), phosphorothioate backbone (DNA TTTTCGAACGTTCGAACGTTCGAAATT; DNA, all phosphorothioate, methylation of C not given here) ?
0.065 µM

***
Under human peripheral blood mononuclear cells (PBMCs): EC50 value of C69-01: 5′-TCG AACGTTCGAACGTTCGAA CGTTCGAAT-3′ (SEQ ID NO: 4), CpG-C 2′-deoxyribopolynucleotide, phosphorothioate backbone (DNA TCGAACGTTCGAACGTTCGAACGTTCGAAT; DNA, all phosphorothioate, methylation of C not given here) ?
0.061 µM

Under human peripheral blood mononuclear cells (PBMCs): EC50 value of C69-02: 5′-TCG AACGTTCGAACGTTCGAA CGTT-3′ (SEQ ID NO: 5), phosphorothioate backbone (DNA TCGAACGTTCGAACGTTCGAACGTT; DNA, all phosphorothioate, methylation of C not given here) ?
0.049 µM

Under human peripheral blood mononuclear cells (PBMCs): EC50 value of C69-10: 5′-TTCG AACGTTCGAACGTTCGAAT-3′ (SEQ ID NO: 23), phosphorothioate backbone (DNA TTCGAACGTTCGAACGTTCGAAT; DNA, all phosphorothioate, methylation of C not given here) ?
0.058 µM
